Biological target: AMPK beta 1 (Homo sapiens, UniProt Q13131+Q9Y478)
Construct: in-cell-ELISA for phospho-ACC (Acetyl-CoA carboxylase 1) in HepG2 cells (liver); endogenous in cells; host or cells: HepG2
Sequence (Q9Y478 whole entry): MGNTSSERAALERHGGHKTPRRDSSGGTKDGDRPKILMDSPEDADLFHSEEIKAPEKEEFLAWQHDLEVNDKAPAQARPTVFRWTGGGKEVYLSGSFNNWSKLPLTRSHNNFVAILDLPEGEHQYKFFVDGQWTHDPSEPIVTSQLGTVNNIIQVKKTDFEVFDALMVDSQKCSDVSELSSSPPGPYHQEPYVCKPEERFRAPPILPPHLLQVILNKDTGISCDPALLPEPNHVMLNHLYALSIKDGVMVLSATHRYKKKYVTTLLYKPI
Sequence (Q13131 whole entry): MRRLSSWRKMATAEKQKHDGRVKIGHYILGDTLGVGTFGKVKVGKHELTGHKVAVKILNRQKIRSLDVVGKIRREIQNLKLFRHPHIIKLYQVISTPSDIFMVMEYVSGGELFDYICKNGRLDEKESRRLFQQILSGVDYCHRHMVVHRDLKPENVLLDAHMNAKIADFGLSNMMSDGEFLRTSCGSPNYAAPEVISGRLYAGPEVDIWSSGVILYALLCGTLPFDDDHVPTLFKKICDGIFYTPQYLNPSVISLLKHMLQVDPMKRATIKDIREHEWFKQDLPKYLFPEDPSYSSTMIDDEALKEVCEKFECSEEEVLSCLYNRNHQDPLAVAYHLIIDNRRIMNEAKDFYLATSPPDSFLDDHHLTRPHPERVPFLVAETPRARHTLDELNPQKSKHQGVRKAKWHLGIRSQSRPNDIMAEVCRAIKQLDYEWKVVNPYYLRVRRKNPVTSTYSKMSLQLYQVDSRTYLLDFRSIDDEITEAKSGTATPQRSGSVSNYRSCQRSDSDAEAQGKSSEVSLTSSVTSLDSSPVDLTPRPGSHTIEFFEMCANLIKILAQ
Sequence (P54619 whole entry partner): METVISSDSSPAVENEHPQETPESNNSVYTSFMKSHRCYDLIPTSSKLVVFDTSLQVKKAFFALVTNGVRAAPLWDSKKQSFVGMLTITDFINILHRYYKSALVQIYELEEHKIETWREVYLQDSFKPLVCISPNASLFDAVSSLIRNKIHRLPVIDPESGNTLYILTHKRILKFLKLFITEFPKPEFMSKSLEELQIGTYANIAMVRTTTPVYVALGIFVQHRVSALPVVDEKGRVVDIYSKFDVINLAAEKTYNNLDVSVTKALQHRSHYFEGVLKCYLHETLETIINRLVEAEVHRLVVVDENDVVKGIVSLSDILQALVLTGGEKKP
Test: in-cell-ELISA for phospho-ACC, Activity beta 1
Format: cell-based
Conditions: 2 h, serum free DMEM, percentage activation over vehicle control, cell line not given (HepG2 or C2C12 myotubes)
Reported values of activation at 1 µM for individual entries

| compound | quantity | endpointValue |
| --- | --- | --- |
| O=C(O)Cc1ccc(C=C2C(=O)Nc3cc(Cl)c(-c4ccc(-c5ccc(-n6cncn6)cc5)cc4)cc32)cc1 | activation at 1 µM | > 40% |
| COc1ccc(C=C2C(=O)Nc3cc(Cl)c(-c4ccc(-c5ccc(-n6cccn6)cc5)cc4)cc32)cc1CC(=O)O | activation at 1 µM | > 40% |
| COc1ccc(C=C2C(=O)Nc3cc(F)c(-c4ccc(-c5ccccc5O)cc4)cc32)cc1CC(=O)O | activation at 1 µM | > 40% |
| Cc1ccc(C=C2C(=O)Nc3cc(Cl)c(-c4ccc(-c5ccc(-n6cncn6)cc5)cc4)cc32)cc1CC(=O)O | activation at 1 µM | 20 to 40% |

I would be grateful if you could share the reported activation at 1 µM for COc1ccc(C=C2C(=O)Nc3cc(Cl)c(-c4ncc(-c5ccccc5O)cn4)cc32)cc1CC(=O)O .
< 20%

Then Cc1ccc(C=C2C(=O)Nc3cc(Cl)c(-c4ccc(-c5ccccc5O)cn4)cc32)cc1CC(=O)O ?
< 20%

Next entry: Cc1ccc(C=C2C(=O)Nc3cc(F)c(-c4ccc(-c5ccc(-n6ccnn6)cc5)cc4)cc32)cc1C(=O)O
> 40%

----------
Test: solubility of sodium salt in water
Format: physicochemical
Settings: read-out: soluble in water
quantity: solubility

| smiles | endpointValue |
| --- | --- |
| COc1ccc(/C=C2\C(=O)Nc3cc(Cl)c(-c4ccc(-c5ccc(-n6cncn6)cc5)cc4)cc32)cc1CC(=O)[O-].[Na+] | ≥ 1000 µg/mL |

Moving on to another molecule below.
Would you kindly share the measured solubility for O=C(O)Cc1ccc(/C=C2\C(=O)Nc3cc(Cl)c(-c4ccc(-c5ccc(-n6cncn6)cc5)cc4)cc32)cc1 ?
≥ 1000 µg/mL

----------
Target: AMPK beta 1 (Homo sapiens, UniProt Q13131+Q9Y478)
Construct: in-cell-ELISA for phospho-ACC (Acetyl-CoA carboxylase 1) in HepG2 cells (liver); endogenous in cells; host or cells: HepG2
Test: in-cell-ELISA for phospho-ACC, Activity beta 1
Type: cell-based
Conditions: 2 h, serum free DMEM, percentage activation over vehicle control, cell line not given (HepG2 or C2C12 myotubes)
Each entry below lists one item and its recorded activation at 1 µM value.

| compound | measuredTarget | activation at 1 µM |
| --- | --- | --- |
| O=C1Nc2cc(Cl)c(-c3ccc(-c4ccccc4O)cc3)cc2C1=Cc1ccc(C(=O)O)[nH]1 [Example 15] | AMPK beta 1 (Homo sapiens, UniProt Q13131+Q9Y478) | < 20% |
| O=C1Nc2cc(Cl)c(-c3ccc(-c4ccccc4O)cc3)cc2C1=Cc1csc(C(=O)O)n1 [Example 22] | AMPK beta 1 (Homo sapiens, UniProt Q13131+Q9Y478) | < 20% |
| COc1ccc(C=C2C(=O)Nc3cc(Cl)c(-c4ccc(-c5ccc(-n6ccnn6)cc5)cc4)cc32)cc1CC(=O)O [Example 56] | AMPK beta 1 (Homo sapiens, UniProt Q13131+Q9Y478) | > 40% |
| Cn1cc(C=C2C(=O)Nc3cc(Cl)c(-c4ccc(-c5ccccc5O)cc4)cc32)cc1C(=O)O [Example 13] | AMPK beta 1 (Homo sapiens, UniProt Q13131+Q9Y478) | > 40% |
| O=C(O)COc1cccc(C=C2C(=O)Nc3cc(Cl)c(-c4ccc(-c5ccccc5O)cc4)cc32)c1 [Example 10] | AMPK beta 1 (Homo sapiens, UniProt Q13131+Q9Y478) | < 20% |
| COc1ccc(/C=C2\C(=O)Nc3cc(Cl)c(-c4ccc(-c5ccc(-n6cncn6)cc5)cc4)cc32)cc1CC(=O)[O-].[Na+] [Example 67] | AMPK beta 1 (Homo sapiens, UniProt Q13131+Q9Y478) | > 40% |
| COc1ccc(C=C2C(=O)Nc3cc(F)c(-c4ccc(-c5ccc(-n6cncn6)cc5)cc4)cc32)cc1CC(=O)O [Example 59] | AMPK beta 1 (Homo sapiens, UniProt Q13131+Q9Y478) | > 40% |
| Cc1ccc(C=C2C(=O)Nc3cc(Cl)c(-c4ccc(-c5ccccc5O)cc4)cc32)cc1C(=O)O [Example 9] | AMPK beta 1 (Homo sapiens, UniProt Q13131+Q9Y478) | > 40% |

# lookup: activation at 1 µM of COc1ccc(C=C2C(=O)Nc3cc(Cl)c(-c4ccc(-c5ccc(-n6cncn6)cc5)c(F)c4)cc32)cc1CC(=O)O [Example 60]
> 40%

Repeat with Cn1ccc(C=C2C(=O)N(CC(=O)O)c3cc(Cl)c(-c4ccc(-c5ccccc5O)cc4)cc32)c1 (racemic) [Example 25]
< 20%

Also O=C(O)Cc1cccc(C=C2C(=O)Nc3cc(Cl)c(-c4ccc(-c5ccc(-n6cncn6)cc5)cc4)cc32)c1 [Example 52] , if possible.
> 40%

----------
Listed molecules paired with reported activation at 1 µM
Biological target: AMPK beta 1 (Homo sapiens, UniProt Q13131+Q9Y478)
Construct: in-cell-ELISA for phospho-ACC (Acetyl-CoA carboxylase 1) in HepG2 cells (liver); endogenous in cells; host or cells: HepG2
Experiment: in-cell-ELISA for phospho-ACC, Activity beta 1
Format: cell-based
Conditions: 2 h, serum free DMEM, percentage activation over vehicle control, cell line not given (HepG2 or C2C12 myotubes)

Worked examples, 6 molecules total:
| molecule | activation at 1 µM |
| --- | --- |
| Cn1nc(/C=C2\C(=O)Nc3cc(Cl)c(-c4ccc(-c5ccccc5O)cc4)cc32)cc1C(=O)O [Example 20] | < 20% |
| COc1ccc(C=C2C(=O)Nc3cc(Cl)c(-c4ccc(-c5ccccc5O)cc4)nc32)cc1C(=O)O [Example 38] | 20 to 40% |
| O=C(O)Cc1cccc(C=C2C(=O)Nc3cc(Cl)c(-c4ccc(-c5ccccc5O)nc4)cc32)c1 [Example 35] | < 20% |
| Cc1ccc(C=C2C(=O)Nc3cc(F)c(-c4cccc(-c5ccccc5O)c4)cc32)cc1CC(=O)O (single isomer, unassigned) [Example 30] | < 20% |
| Cc1ccc(C=C2C(=O)Nc3cc(Cl)c(-c4ccc(-c5ccncc5)cc4)cc32)cc1CC(=O)O [Example 39] | 20 to 40% |
| CC(=C1C(=O)Nc2cc(F)c(-c3ccc(-c4ccccc4O)cc3)cc21)c1cccc(CC(=O)O)c1 [Example 8] | < 20% |

Requested field: activation at 1 µM. Item: Cc1ccc(C=C2C(=O)Nc3cc(Cl)c(-c4ncc(-c5ccccc5O)cn4)cc32)cc1CC(=O)O [Example 45]
< 20%

Could you do the same for Cn1c(C=C2C(=O)Nc3cc(Cl)c(-c4ccc(-c5ccc(-n6cncn6)cc5)cc4)cc32)ccc1C(=O)O [Example 69] , please?
> 40%

// query: Cn1cc(C=C2C(=O)N(CCO)c3cc(Cl)c(-c4ccc(-c5ccccc5O)cc4)cc32)cc1C(=O)O [Example 26]
< 20%

Okay, and Cc1ccc(C=C2C(=O)Nc3cc(F)c(-c4ccc(-c5ccc(-n6cccn6)cc5)cc4)cc32)cc1C(=O)O [Example 61] ?
> 40%

Continue with O=C(O)Cc1cccc(C=C2C(=O)Nc3cc(F)c(-c4ccc(-c5ccccc5O)cc4)cc32)c1 [Example 5]
> 40%

# iterate: Cn1cc(CC(=O)O)cc1C=C1C(=O)Nc2cc(Cl)c(-c3ccc(-c4ccccc4O)cc3)cc21 [Example 17]
< 20%

Param item: Cn1c(C=C2C(=O)Nc3cc(Cl)c(-c4ccc(-c5ccccc5O)cc4)cc32)ccc1C(=O)O [Example 14]
20 to 40%

Thanks! And Cc1ccc(C=C2C(=O)Nc3cc(F)c(-c4ccc(-c5ccccc5O)cc4)cc32)cc1CC(=O)O [Example 3] ?
> 40%

Consider next the molecule Cc1ccc(C=C2C(=O)Nc3cc(Cl)c(-c4ccc(-c5ccccc5O)cc4)cc32)cc1CC(=O)O (racemic) [Example 1] in the same way.
> 40%

Another molecule: Cn1cc(C=C2C(=O)Nc3cc(F)c(-c4ccc(-c5ccncc5)cc4)cc32)cc1C(=O)O [Example 43]
< 20%

C/C(=C1/C(=O)Nc2cc(F)c(-c3ccc(-c4ccccc4O)cc3)cc21)c1cccc(CC(=O)N2CCCC2)c1 [Example 24] , same question.
< 20%

Now consider COc1ccc(C=C2C(=O)Nc3cc(Cl)c(-c4ccc(-c5ccccc5O)cc4)cc32)cc1CC(=O)O [Example 11] .
> 40%

Field entry: Cn1cc(C=C2C(=O)Nc3cc(Cl)c(-c4ccc(-c5ccccc5)cc4)cc32)cc1C(=O)O [Example 23]
< 20%

Can you handle Cc1ccc(C=C2C(=O)Nc3cc(Cl)c(-c4ccc(-c5ccc(S(C)(=O)=O)cc5)cc4)cc32)cc1CC(=O)O [Example 48] next?
> 40%
